Reference source for all entries: patent US8637509B2

# measurement-target: EZH2 (Homo sapiens)
# Construct: GRITS37108
# measurement-description: EZH2 methyltransferase SPA assay (3H-SAM, Hela nucleosomes)
# Format: biochemical
# measurement-conditions: read-out: IC50
Each entry falls into one class according to its IC50; the ranges are lo (below 100 nM), med (100 nM to below 300 nM), hi (300 nM or more)

compound	assigned-class
Cc1cc(C)c(CNC(=O)c2cc(C3CC3)nc3c2c(C)nn3C2CCC2)c(=O)[nH]1	hi
Cc1cc(C)c(CNC(=O)c2cc(-c3ccc(N4CCOCC4)nc3)nc3c2c(C)nn3C(C)(C)C)c(=O)[nH]1	lo
Cc1cc(C)c(CNC(=O)c2cc(-c3cn[nH]c3)nc3c2cnn3C(C)C)c(=O)[nH]1	hi
Cc1cc(C)c(CNC(=O)c2cc(N3CCNCC3)nc3c2cnn3C(C)C)c(=O)[nH]1	hi
Cc1cc(C2CC2)c(CNC(=O)c2cc(-c3ccncc3)nc3c2cnn3C(C)C)c(=O)[nH]1	lo
Cc1cc(C)c(CNC(=O)c2cc(-c3ccc4c(c3)CC(=O)N4)nc3c2cnn3C(C)C)c(=O)[nH]1	med
Cc1cc(C)c(CNC(=O)c2cc(-c3ccc(-c4cn[nH]c4)cc3)nc3c2cnn3C(C)C)c(=O)[nH]1	med
Cc1cc(C)c(CNC(=O)c2cc(-c3cncc(S(C)(=O)=O)c3)nc3c2cnn3C(C)C)c(=O)[nH]1	med
Cc1cc(C)c(CNC(=O)c2cc(-c3ccc(S(N)(=O)=O)cc3)nc3c2cnn3C(C)C)c(=O)[nH]1	lo
Cc1cc(C)c(CNC(=O)c2cc(C3CC3)nc3c2c(C)nn3C2CCN(C)CC2)c(=O)[nH]1	hi
Cc1cc(C)c(CNC(=O)c2cc(N3CCOCC3)nc3c2cnn3C(C)C)c(=O)[nH]1	hi
Cc1cc(C)c(CNC(=O)c2cc(-c3ccco3)nc3c2cnn3C(C)C)c(=O)[nH]1	hi
Cc1cc(C)c(CNC(=O)c2cc(NCc3ccccc3)nc3c2cnn3C(C)C)c(=O)[nH]1	hi
Cc1cc(C)c(CNC(=O)c2cc(C3CC3)nc3c2c(C)nn3C2CCCC2)c(=O)[nH]1	med
COc1ccc(-c2cc(C(=O)NCc3c(C)cc(C)[nH]c3=O)c3cnn(C(C)C)c3n2)cn1	lo

----------
Parameter IC50: see the listing below.
# measurement-target: EZH2 (Homo sapiens, UniProt Q15910)
# Construct: GRITS37108
# Sequence (Q15910 whole entry): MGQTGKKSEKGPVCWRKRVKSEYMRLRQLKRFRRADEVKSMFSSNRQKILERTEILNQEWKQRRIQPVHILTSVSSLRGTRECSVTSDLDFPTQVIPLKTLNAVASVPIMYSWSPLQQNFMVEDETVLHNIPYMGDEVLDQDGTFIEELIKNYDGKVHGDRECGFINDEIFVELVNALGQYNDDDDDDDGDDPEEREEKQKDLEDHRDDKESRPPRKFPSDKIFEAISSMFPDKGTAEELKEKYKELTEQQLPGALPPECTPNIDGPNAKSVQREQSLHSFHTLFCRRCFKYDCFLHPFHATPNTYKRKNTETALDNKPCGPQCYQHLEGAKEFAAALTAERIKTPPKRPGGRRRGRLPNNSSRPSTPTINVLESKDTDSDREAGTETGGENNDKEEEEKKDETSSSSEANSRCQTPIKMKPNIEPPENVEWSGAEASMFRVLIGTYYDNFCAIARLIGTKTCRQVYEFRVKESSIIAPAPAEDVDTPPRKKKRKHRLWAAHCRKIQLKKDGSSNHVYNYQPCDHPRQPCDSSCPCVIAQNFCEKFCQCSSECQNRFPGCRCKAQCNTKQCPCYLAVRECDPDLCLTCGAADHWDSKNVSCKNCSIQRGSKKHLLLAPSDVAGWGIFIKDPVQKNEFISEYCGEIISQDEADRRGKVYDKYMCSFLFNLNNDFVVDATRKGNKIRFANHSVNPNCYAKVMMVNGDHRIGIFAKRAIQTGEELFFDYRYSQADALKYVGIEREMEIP
# Sequence (O75530 whole entry partner): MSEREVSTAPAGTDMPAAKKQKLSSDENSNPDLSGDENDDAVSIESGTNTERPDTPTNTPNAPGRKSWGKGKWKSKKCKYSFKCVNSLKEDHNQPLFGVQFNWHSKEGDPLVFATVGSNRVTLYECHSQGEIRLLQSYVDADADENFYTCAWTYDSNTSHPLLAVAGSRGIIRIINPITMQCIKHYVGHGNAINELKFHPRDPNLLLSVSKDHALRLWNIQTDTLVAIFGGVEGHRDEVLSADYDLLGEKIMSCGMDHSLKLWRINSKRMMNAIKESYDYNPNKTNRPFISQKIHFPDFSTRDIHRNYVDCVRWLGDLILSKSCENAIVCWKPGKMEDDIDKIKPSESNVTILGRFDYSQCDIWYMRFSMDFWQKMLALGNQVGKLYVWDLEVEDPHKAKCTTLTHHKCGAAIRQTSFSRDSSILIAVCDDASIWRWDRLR
# Sequence (Q15022 whole entry partner): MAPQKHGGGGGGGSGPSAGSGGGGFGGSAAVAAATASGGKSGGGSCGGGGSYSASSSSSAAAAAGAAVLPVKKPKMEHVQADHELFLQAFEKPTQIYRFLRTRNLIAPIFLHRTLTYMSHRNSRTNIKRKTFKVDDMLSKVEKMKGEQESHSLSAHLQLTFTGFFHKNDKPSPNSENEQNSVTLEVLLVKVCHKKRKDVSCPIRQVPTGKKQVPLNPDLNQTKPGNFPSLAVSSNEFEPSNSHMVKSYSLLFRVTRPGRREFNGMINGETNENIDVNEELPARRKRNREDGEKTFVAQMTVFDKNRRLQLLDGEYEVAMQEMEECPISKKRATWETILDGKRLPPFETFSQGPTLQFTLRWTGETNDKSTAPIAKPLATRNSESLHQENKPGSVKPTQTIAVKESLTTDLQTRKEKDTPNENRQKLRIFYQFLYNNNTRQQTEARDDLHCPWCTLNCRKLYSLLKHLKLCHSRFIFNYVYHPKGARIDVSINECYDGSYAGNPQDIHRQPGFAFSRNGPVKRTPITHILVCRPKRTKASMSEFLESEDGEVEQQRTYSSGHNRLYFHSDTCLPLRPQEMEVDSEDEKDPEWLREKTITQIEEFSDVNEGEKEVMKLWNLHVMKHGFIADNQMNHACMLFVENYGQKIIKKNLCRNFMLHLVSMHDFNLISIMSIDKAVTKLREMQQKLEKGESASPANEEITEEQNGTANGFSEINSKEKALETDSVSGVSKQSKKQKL
# measurement-description: EZH2 methyltransferase SPA assay (3H-SAM, Hela nucleosomes)
# Type: biochemical
# measurement-conditions: read-out: IC50

compound	unit-text	IC50
Cc1cc(C)c(CNC(=O)c2cc(C3CC3)nc3c2cnn3CCNS(C)(=O)=O)c(=O)[nH]1	nM	25000
Cc1cc(C)c(CNC(=O)c2cc(NCCNc3ccccn3)nc3c2cnn3C(C)C)c(=O)[nH]1	nM	489
Cc1cc(C)c(CNC(=O)c2cc(-c3ccccc3[N+](=O)[O-])nc3c2cnn3C(C)C)c(=O)[nH]1	nM	1050
Cc1cc(C)c(CNC(=O)c2cc(-c3ccccc3C)nc3c2cnn3C(C)C)c(=O)[nH]1	nM	1890
Cc1cc(C)c(CNC(=O)c2cc(-c3ccc(N)nc3)nc3c2cnn3C(C)C)c(=O)[nH]1	nM	198
CCCc1cc(C(=O)NCc2c(C)cc(C)[nH]c2=O)c2cnn(C(C)C)c2n1	nM	2160
Cc1cc(C)c(CNC(=O)c2cc(NC3CCNCC3)nc3c2cnn3C(C)C)c(=O)[nH]1	nM	436
COc1ccc(-c2cc(C(=O)NCc3c(C)cc(C)[nH]c3=O)c3cnn(C(C)C)c3n2)cc1	nM	248
Cc1cc(C)c(CNC(=O)c2cc(-c3ccc(N4CCN(C)CC4)nc3)nc3c2c(C)nn3C(C)(C)C)c(=O)[nH]1	nM	18
Cc1cc(C)c(CNC(=O)c2cc(-c3ccnc(N)c3)nc3c2cnn3C(C)C)c(=O)[nH]1	nM	115
Cc1cc(C)c(CNC(=O)c2cc(N(C)C)nc3c2cnn3C(C)C)c(=O)[nH]1	nM	873
CCCc1cc(C)[nH]c(=O)c1CNC(=O)c1cc(C2CC2)nc2c1cnn2C(C)C	nM	55
Cc1cc(C)c(CNC(=O)c2cc(-c3ccncc3)nc3c2c(C)nn3C(C)C)c(=O)[nH]1	nM	190
Cc1cc(C)c(CNC(=O)c2cc(N)nc3c2cnn3C(C)C)c(=O)[nH]1	nM	695
Cc1cc(C)c(CNC(=O)c2cc(-c3ccc4nonc4c3)nc3c2c(C)nn3C(C)C)c(=O)[nH]1	nM	173
COc1ncc(-c2cc(C(=O)NCc3c(C)cc(C)[nH]c3=O)c3cnn(C(C)C)c3n2)cc1NS(=O)(=O)C1CC1	nM	79
Cc1cc(C)c(CNC(=O)c2cc(NCCO)nc3c2cnn3C(C)C)c(=O)[nH]1	nM	784

----------
# measurement-target: EZH2 (Homo sapiens, UniProt Q15910)
# Construct: GRITS37108
# measurement-description: EZH2 methyltransferase SPA assay (3H-SAM, Hela nucleosomes)
# Format: biochemical
# measurement-conditions: read-out: IC50
pIC50: −log10 of the molar value.
Parameter pIC50: see the listing below.
measured-attribute: pIC50

compound	assay-result
Cc1cc(C(C)C)c(CNC(=O)c2cc(C3CC3)nc3c2cnn3C(C)C)c(=O)[nH]1 [Ex 8]	6.78
Cc1cc(C)c(CNC(=O)c2cc(-c3ccc4[nH]c(=O)[nH]c4c3)nc3c2cnn3C(C)C)c(=O)[nH]1 [Ex 80]	7.15
Cc1cc(C)c(CNC(=O)c2cc(-c3ccc4[nH]ncc4c3)nc3c2cnn3C(C)C)c(=O)[nH]1 [Ex 74]	6.82
Cc1cc(C2CCCCC2)c(CNC(=O)c2cc(-c3ccncc3)nc3c2cnn3C(C)C)c(=O)[nH]1 [Ex 15]	6.75
CNC(=O)c1ccc(-c2cc(C(=O)NCc3c(C)cc(C)[nH]c3=O)c3cnn(C(C)C)c3n2)cn1 [Ex 63]	7.02
CC(=O)Nc1cccc(-c2cc(C(=O)NCc3c(C)cc(C)[nH]c3=O)c3cnn(C(C)C)c3n2)c1 [Ex 47]	7.06
Cc1cc(C)c(CNC(=O)c2cc(C3CC3)nc3c2c(C)nn3C(C)C2CC2)c(=O)[nH]1 (stereo not shown) [Ex 109]	6.68
COc1cc(-c2cc(C(=O)NCc3c(C)cc(C)[nH]c3=O)c3cnn(C(C)C)c3n2)ccn1 [Ex 59]	6.81
CCCc1cc(C)c(CNC(=O)c2cc(C3CC3)nc3c2cnn3C(C)C)c(=O)[nH]1 [Ex 7]	5.89
Cc1cc(C)c(CNC(=O)c2cc(-c3cnc(N)nc3)nc3c2cnn3C(C)C)c(=O)[nH]1 [Ex 72]	6.77
Cc1cc(C)c(CNC(=O)c2cc(-c3ccc(NS(C)(=O)=O)cc3)nc3c2cnn3C(C)C)c(=O)[nH]1 [Ex 51]	6.79
CNS(=O)(=O)c1ccc(-c2cc(C(=O)NCc3c(C)cc(C)[nH]c3=O)c3cnn(C(C)C)c3n2)cn1 [Ex 97]	7.26
Cc1cc(C)c(CNC(=O)c2cc(NC3CCOCC3)nc3c2cnn3C(C)C)c(=O)[nH]1 [Ex 54]	6.29
Cc1cc(C)c(CNC(=O)c2cc(-c3ccccc3)nc3c2cnn3C(C)C)c(=O)[nH]1 [Ex 38]	6.41
Cc1cc(C)c(CNC(=O)c2cc(-c3ccc(N)cc3)nc3c2cnn3C(C)C)c(=O)[nH]1 [Ex 43]	6.69
Cc1cc(C(C)C)c(CNC(=O)c2cc(-c3ccncc3)nc3c2cnn3C(C)C)c(=O)[nH]1 [Ex 12]	7.26

----------
# measurement-target: EZH2 (Homo sapiens, UniProt Q15910)
# Construct: GRITS37108
# measurement-description: EZH2 methyltransferase SPA assay (3H-SAM, Hela nucleosomes)
# Format: biochemical
# measurement-conditions: read-out: IC50
measured-attribute: log10 IC50 (log10 of the value in µM)

compound	log10 IC50
Cc1cc(C)c(CNC(=O)c2cc(NCc3ccncc3)nc3c2cnn3C(C)C)c(=O)[nH]1	-0.59
CCCc1cc(C)c(CNC(=O)c2cc(-c3ccncc3)nc3c2cnn3C(C)C)c(=O)[nH]1	0.12
Cc1cc(C)c(CNC(=O)c2cc(-c3ccc(N4CCOCC4)nc3)nc3c2cnn3C(C)C)c(=O)[nH]1	-1.24
Cc1cc(C)c(CNC(=O)c2cc(C3CC3)nc3c2c(C)nn3C(C)(C)C)c(=O)[nH]1	-1.12
Cc1cc(C)c(CNC(=O)c2cc(Oc3ccncc3)nc3c2cnn3C(C)C)c(=O)[nH]1	-0.94
Cc1cc(C)c(CNC(=O)c2cc(-c3ccc(N(C)C)nc3)nc3c2cnn3C(C)C)c(=O)[nH]1	-1.07
Cc1cc(C)c(CNC(=O)c2cc(-c3ccc4[nH]nnc4c3)nc3c2cnn3C(C)C)c(=O)[nH]1	-1.09
CC(=O)Nc1ccc(-c2cc(C(=O)NCc3c(C)cc(C)[nH]c3=O)c3c(C)nn(C(C)C)c3n2)cc1	-1.08
